# System: SW 900
# Measurement Protocol: relative viability (nuclei count vs DMSO), 5 days (fraction); higher = more cells survive
# Run Parameters: first compound 0.0002 µM
Measured Metric: relative viability
Please reply with the value in numeric form only.

Below, each entry is followed by its recorded relative viability result.
{"columns": ["Compound", "Measurement Target", "relative viability"],
 "data": [
  ["CC(=O)O[C@@]12CO[C@@H]1C[C@H](O)[C@@]1(C)C(=O)[C@H](O)C3=C(C)[C@@H](OC(=O)[C@H](O)[C@@H](NC(=O)OC(C)(C)C)c4ccccc4)C[C@@](O)([C@@H](OC(=O)c4ccccc4)[C@H]21)C3(C)C [Docetaxel] + O=C(c1cc(Cc2n[nH]c(=O)c3ccccc23)ccc1F)N1CCN(C(=O)C2CC2)CC1 [Olaparib] (partner 8 µM)", "SW 900", 0.817],
  ["CC(=O)O[C@@]12CO[C@@H]1C[C@H](O)[C@@]1(C)C(=O)[C@H](O)C3=C(C)[C@@H](OC(=O)[C@H](O)[C@@H](NC(=O)OC(C)(C)C)c4ccccc4)C[C@@](O)([C@@H](OC(=O)c4ccccc4)[C@H]21)C3(C)C [Docetaxel] + Nc1nc2[nH]cc(CCc3ccc(C(=O)N[C@@H](CCC(=O)O)C(=O)O)cc3)c2c(=O)[nH]1 [Pemetrexed] (partner 0.2 µM)", "SW 900", 0.462],
  ["CC(=O)O[C@@]12CO[C@@H]1C[C@H](O)[C@@]1(C)C(=O)[C@H](O)C3=C(C)[C@@H](OC(=O)[C@H](O)[C@@H](NC(=O)OC(C)(C)C)c4ccccc4)C[C@@](O)([C@@H](OC(=O)c4ccccc4)[C@H]21)C3(C)C [Docetaxel] + CC(=O)Nc1cccc(-n2c(=O)n(C3CC3)c(=O)c3c(Nc4ccc(I)cc4F)n(C)c(=O)c(C)c32)c1 [Trametinib] (partner 0.02 µM)", "SW 900", 0.802]
]}

The record that follows has no relative viability shown yet.
-- ask Supply measured relative viability of CC(=O)O[C@@]12CO[C@@H]1C[C@H](O)[C@@]1(C)C(=O)[C@H](O)C3=C(C)[C@@H](OC(=O)[C@H](O)[C@@H](NC(=O)OC(C)(C)C)c4ccccc4)C[C@@](O)([C@@H](OC(=O)c4ccccc4)[C@H]21)C3(C)C [Docetaxel] + Cc1cc(Nc2cc(N3CCN(C)CC3)nc(Sc3ccc(NC(=O)C4CC4)cc3)n2)n[nH]1 [Tozasertib] (partner 0.1 µM) in your reply.
-- reply 0.453

----------
# Test system: SW 1573
# Measurement Protocol: relative viability (nuclei count vs DMSO), 5 days (fraction); higher = more cells survive
# Run Parameters: first compound 0.04 µM
Quick reference for relative viability among some compounds
Please reply with the value in numeric form only.

{"columns": ["Compound", "Measurement Target", "relative viability"],
 "data": [
  ["Cc1sc2c(c1C)C(c1ccc(Cl)cc1)=N[C@@H](CC(=O)OC(C)(C)C)c1nnc(C)n1-2 [JQ1] + CS(=O)(=O)CCNCc1ccc(-c2ccc3ncnc(Nc4ccc(OCc5cccc(F)c5)c(Cl)c4)c3c2)o1 [Lapatinib] (partner 2 µM)", "SW 1573", 1.13]
]}

-- ask Supply measured relative viability of Cc1sc2c(c1C)C(c1ccc(Cl)cc1)=N[C@@H](CC(=O)OC(C)(C)C)c1nnc(C)n1-2 [JQ1] + CC(C)C[C@H](NC(=O)[C@H](Cc1ccccc1)NC(=O)c1cnccn1)B(O)O [Bortezomib] (partner 0.002 µM) in your reply.
-- reply 1.13

-- ask Supply measured relative viability of Cc1sc2c(c1C)C(c1ccc(Cl)cc1)=N[C@@H](CC(=O)OC(C)(C)C)c1nnc(C)n1-2 [JQ1] + Nc1nc2[nH]cc(CCc3ccc(C(=O)N[C@@H](CCC(=O)O)C(=O)O)cc3)c2c(=O)[nH]1 [Pemetrexed] (partner 0.2 µM) in your reply.
-- reply 0.826

-- ask Supply measured relative viability of Cc1sc2c(c1C)C(c1ccc(Cl)cc1)=N[C@@H](CC(=O)OC(C)(C)C)c1nnc(C)n1-2 [JQ1] + Cc1nc(Nc2ncc(C(=O)Nc3c(C)cccc3Cl)s2)cc(N2CCN(CCO)CC2)n1 [Dasatinib] (partner 0.075 µM) in your reply.
-- reply 0.486

-- ask Supply measured relative viability of Cc1sc2c(c1C)C(c1ccc(Cl)cc1)=N[C@@H](CC(=O)OC(C)(C)C)c1nnc(C)n1-2 [JQ1] + COc1cccc2cc(-c3nc([C@H]4CC[C@H](C(=O)O)CC4)n4ncnc(N)c34)[nH]c12 [OSI-027] (partner 0.5 µM) in your reply.
-- reply 0.511

-- ask Supply measured relative viability of Cc1sc2c(c1C)C(c1ccc(Cl)cc1)=N[C@@H](CC(=O)OC(C)(C)C)c1nnc(C)n1-2 [JQ1] + O=C(c1cc(Cc2n[nH]c(=O)c3ccccc23)ccc1F)N1CCN(C(=O)C2CC2)CC1 [Olaparib] (partner 8 µM) in your reply.
-- reply 0.428

-- ask Supply measured relative viability of Cc1sc2c(c1C)C(c1ccc(Cl)cc1)=N[C@@H](CC(=O)OC(C)(C)C)c1nnc(C)n1-2 [JQ1] + C[C@@H](Oc1cc(-c2cnn(C3CCNCC3)c2)cnc1N)c1c(Cl)ccc(F)c1Cl [Crizotinib] (partner 1 µM) in your reply.
-- reply 0.633

----------
# System: NCI-H1915
# Measurement Protocol: relative viability (nuclei count vs DMSO), 5 days (fraction); higher = more cells survive
# Run Parameters: first compound 0.01581 µM
Measured Metric: relative viability
Please reply with the value in numeric form only.

{"columns": ["Molecule", "Measured Metric", "Observed Measurement"],
 "data": [
  ["COc1cc2nccc(Oc3ccc(NC(=O)Nc4cc(C)on4)c(Cl)c3)c2cc1OC [Tivozanib] + CC(=O)c1c(C)c2cnc(Nc3ccc(N4CCNCC4)cn3)nc2n(C2CCCC2)c1=O [Palbociclib] (partner 0.5 µM)", "relative viability", 0.553]
]}

The record that follows has no relative viability shown yet.
-- ask Supply measured relative viability of COc1cc2nccc(Oc3ccc(NC(=O)Nc4cc(C)on4)c(Cl)c3)c2cc1OC [Tivozanib] + Cc1nc(Nc2ncc(C(=O)Nc3c(C)cccc3Cl)s2)cc(N2CCN(CCO)CC2)n1 [Dasatinib] (partner 0.075 µM) in your reply.
-- reply 0.3

----------
Quick reference for relative viability among some molecules
# Test system: BEN
# Measurement Protocol: relative viability (nuclei count vs DMSO), 5 days (fraction); higher = more cells survive
# Run Parameters: first compound 5 µM
Please reply with the value in numeric form only.

{"columns": ["Molecule", "Measurement Target", "relative viability"],
 "data": [
  ["O=C(O)CCCCC(CCSCc1ccccc1)SCc1ccccc1 (centres undefined) [CPI-613] + CCNC(=O)c1noc(-c2cc(C(C)C)c(O)cc2O)c1-c1ccc(CN2CCOCC2)cc1 [Luminespib] (partner 0.01 µM)", "BEN", 0.619],
  ["O=C(O)CCCCC(CCSCc1ccccc1)SCc1ccccc1 (centres undefined) [CPI-613] + Cc1cc(Nc2cc(N3CCN(C)CC3)nc(Sc3ccc(NC(=O)C4CC4)cc3)n2)n[nH]1 [Tozasertib] (partner 0.1 µM)", "BEN", 0.532],
  ["O=C(O)CCCCC(CCSCc1ccccc1)SCc1ccccc1 (centres undefined) [CPI-613] + CC(=O)Nc1cccc(-n2c(=O)n(C3CC3)c(=O)c3c(Nc4ccc(I)cc4F)n(C)c(=O)c(C)c32)c1 [Trametinib] (partner 0.02 µM)", "BEN", 1.14]
]}

-- ask Supply measured relative viability of O=C(O)CCCCC(CCSCc1ccccc1)SCc1ccccc1 (centres undefined) [CPI-613] + Nc1nc2[nH]cc(CCc3ccc(C(=O)N[C@@H](CCC(=O)O)C(=O)O)cc3)c2c(=O)[nH]1 [Pemetrexed] (partner 0.2 µM) in your reply.
-- reply 0.809

----------
# Tested on: SK-MES-1
# Measurement Protocol: relative viability (nuclei count vs DMSO), 5 days (fraction); higher = more cells survive
# Run Parameters: first compound 0.005 µM
Simple rule here: relative viability less than 0.6 is Yes, otherwise No.

Example entries and their recorded answers appear below.
{"columns": ["Compound", "Cat"],
 "data": [
  ["Nc1ccn([C@@H]2O[C@H](CO)[C@@H](O)[C@@H]2O)c(=O)n1 [Cytarabine] + O=C(c1cc(Cc2n[nH]c(=O)c3ccccc23)ccc1F)N1CCN(C(=O)C2CC2)CC1 [Olaparib] (partner 8 µM)", "No"],
  ["COc1cc2nccc(Oc3ccc(NC(=O)Nc4cc(C)on4)c(Cl)c3)c2cc1OC [Tivozanib] + Cc1nc(Nc2ncc(C(=O)Nc3c(C)cccc3Cl)s2)cc(N2CCN(CCO)CC2)n1 [Dasatinib] (partner 0.075 µM)", "Yes"],
  ["Nc1ccn([C@@H]2O[C@H](CO)[C@@H](O)[C@@H]2O)c(=O)n1 [Cytarabine] + CCNC(=O)c1noc(-c2cc(C(C)C)c(O)cc2O)c1-c1ccc(CN2CCOCC2)cc1 [Luminespib] (partner 0.01 µM)", "No"]
]}

-- ask Is 0.6 strictly greater than the compound's reported relative viability? compound: COc1cc2nccc(Oc3ccc(NC(=O)Nc4cc(C)on4)c(Cl)c3)c2cc1OC [Tivozanib] + N=C(N)NC(=N)NCCc1ccccc1 [Phenformin] (partner 250 µM)
-- reply No

-- ask Is 0.6 strictly greater than the compound's reported relative viability? compound: Nc1ccn([C@@H]2O[C@H](CO)[C@@H](O)[C@@H]2O)c(=O)n1 [Cytarabine] + CS(=O)(=O)N1CCN(Cc2cc3nc(-c4cccc5[nH]ncc45)nc(N4CCOCC4)c3s2)CC1 [Pictilisib] (partner 1 µM)
-- reply Yes
